Molecular target: CXCR3-PK2 (Homo sapiens, UniProt P49682)
Construct: expressed in transfected cells
Sequence (P49682 whole entry): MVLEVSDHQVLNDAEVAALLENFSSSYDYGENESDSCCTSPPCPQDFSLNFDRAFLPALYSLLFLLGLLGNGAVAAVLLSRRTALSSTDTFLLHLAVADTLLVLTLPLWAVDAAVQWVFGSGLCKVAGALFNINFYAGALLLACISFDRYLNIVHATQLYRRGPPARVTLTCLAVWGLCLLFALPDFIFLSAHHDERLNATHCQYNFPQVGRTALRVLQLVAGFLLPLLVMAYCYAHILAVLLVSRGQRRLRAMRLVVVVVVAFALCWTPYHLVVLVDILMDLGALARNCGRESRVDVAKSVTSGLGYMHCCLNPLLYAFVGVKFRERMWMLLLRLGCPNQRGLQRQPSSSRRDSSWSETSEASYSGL
Experiment: β-arrestin 2 recruitment assay (PathHunter, DiscoveRx), CXCR3-PK2 construct
Assay type: cell-based
Conditions: HEK293-T cells, PathHunter, CXCR3-PK2
Protocol: β-arrestin 2 recruitment assay: The measurement of β-arrestin recruitment was performed utilizing the PathHunter assay purchased from DiscoveRx (DiscoveRx, Birmingham, U.K.) according to the manufacturer's protocol. […] Chemiluminescence was determined with a microplate reader Clariostar (BMG labtech, Ortenberg, Germany). […]
observable: CXCR3-PK2 pEC50 ± SEM

> print(dat)
                             compoundstring     result
1  CC(C)(C)OC(=O)N[C@H](CCCCNC(=O)[C@@H]1Cc2ccccc2CN1C(=O)CCC(=O)c1ccccc1)C(=O)NCC(c1ccccc1)c1ccccc1  6.86±0.19
2  N[C@@H](CCCCNC(=O)[C@@H]1Cc2ccccc2CN1C(=O)CCC(=O)c1ccccc1)C(=O)NCC(c1ccccc1)c1ccccc1.O=C(O)C(F)(F)F  6.51±0.34
3  N[C@H](CCCCNC(=O)[C@@H]1Cc2ccccc2CN1C(=O)CCC(=O)c1ccccc1)C(=O)NCC(c1ccccc1)c1ccccc1.O=C(O)C(F)(F)F  6.52±0.43
4  CC(C)(C)OC(=O)N[C@@H](CCCCNC(=O)[C@@H]1Cc2ccccc2CN1C(=O)CCc1ccccc1)C(=O)NCC(c1ccccc1)c1ccccc1  6.71±0.30
5  NCCCC[C@@H](NC(=O)[C@@H]1Cc2ccccc2CN1C(=O)CCC(=O)c1ccccc1)C(=O)NCC(c1ccccc1)c1ccccc1.O=C(O)C(F)(F)F  6.12±0.11

Hello, the source for this data is patent EP3156398A1, in case you need it.
